Cited source: patent US20100240683A1

target: CYP2C9 (Homo sapiens, UniProt P11712); test: Fluorimetric CYP inhibition assay, CYP2C9-MFC; details: human, % Inhibition (set 2), positive control 0.00 μM (second line); MFC
Sequence (P11712 whole entry): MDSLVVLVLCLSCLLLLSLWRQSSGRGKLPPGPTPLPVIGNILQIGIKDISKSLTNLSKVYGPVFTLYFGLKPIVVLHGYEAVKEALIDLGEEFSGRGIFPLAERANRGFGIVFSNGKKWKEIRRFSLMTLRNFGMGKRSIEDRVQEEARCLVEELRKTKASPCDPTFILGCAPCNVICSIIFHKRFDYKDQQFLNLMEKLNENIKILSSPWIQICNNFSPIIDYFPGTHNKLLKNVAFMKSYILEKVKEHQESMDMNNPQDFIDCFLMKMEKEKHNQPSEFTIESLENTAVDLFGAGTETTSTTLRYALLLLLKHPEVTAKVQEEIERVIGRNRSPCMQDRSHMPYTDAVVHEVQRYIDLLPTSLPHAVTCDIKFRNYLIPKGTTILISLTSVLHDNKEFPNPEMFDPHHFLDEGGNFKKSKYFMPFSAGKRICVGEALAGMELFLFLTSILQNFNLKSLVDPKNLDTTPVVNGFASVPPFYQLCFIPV
Readout Name: inhibition at 0 μM (%)

Structure Smiles String	Unit Label	Recorded Measurement
Nc1ccc(S(=O)(=O)Nc2ccnn2-c2ccccc2)cc1	%	0

###

target: CYP2C9 (Homo sapiens, UniProt P11712); assay: in vitro; settings: % Inhibition (set 1)

Structure Smiles String	inhibition at 1.23 μM, %
CC(C)(CCCCCCCCCCC(C)(C)CC(=O)O)CC(=O)O	3
CC(C)(CCCCCCCCCCCCC(C)(C)C(=O)O)C(=O)O	2

###

Target: UniProt P05177
Sequence (P05177 1-516): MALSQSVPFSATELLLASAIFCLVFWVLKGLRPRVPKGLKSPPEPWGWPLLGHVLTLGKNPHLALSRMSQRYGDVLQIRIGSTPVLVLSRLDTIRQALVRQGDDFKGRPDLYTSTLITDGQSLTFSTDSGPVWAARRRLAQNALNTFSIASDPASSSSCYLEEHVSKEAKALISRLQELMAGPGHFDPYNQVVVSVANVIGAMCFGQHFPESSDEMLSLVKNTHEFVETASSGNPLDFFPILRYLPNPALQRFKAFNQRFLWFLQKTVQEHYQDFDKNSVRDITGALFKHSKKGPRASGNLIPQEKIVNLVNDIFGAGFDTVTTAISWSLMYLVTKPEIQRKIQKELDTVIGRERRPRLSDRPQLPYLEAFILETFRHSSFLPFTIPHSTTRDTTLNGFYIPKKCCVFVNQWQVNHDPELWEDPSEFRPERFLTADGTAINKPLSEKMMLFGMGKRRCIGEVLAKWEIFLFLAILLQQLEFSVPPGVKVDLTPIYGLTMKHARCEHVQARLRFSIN
Assay: in vitro
Conditions: % Inhibition (set 2)
# inhibition at 100 μM annotations
Readout Name: inhibition at 100 μM (%)

Molecule	Target Entity	Recorded Measurement
CC(C)(CCCCCCCCCCCCC(C)(C)C(=O)O)C(=O)O [M16αα]	UniProt P05177	9
CC(C)(CCCCCCCCCCC(C)(C)CC(=O)O)CC(=O)O [M16ββ]	UniProt P05177	4

###

molecular target: UniProtKB P10635
Sequence (P10635 whole entry): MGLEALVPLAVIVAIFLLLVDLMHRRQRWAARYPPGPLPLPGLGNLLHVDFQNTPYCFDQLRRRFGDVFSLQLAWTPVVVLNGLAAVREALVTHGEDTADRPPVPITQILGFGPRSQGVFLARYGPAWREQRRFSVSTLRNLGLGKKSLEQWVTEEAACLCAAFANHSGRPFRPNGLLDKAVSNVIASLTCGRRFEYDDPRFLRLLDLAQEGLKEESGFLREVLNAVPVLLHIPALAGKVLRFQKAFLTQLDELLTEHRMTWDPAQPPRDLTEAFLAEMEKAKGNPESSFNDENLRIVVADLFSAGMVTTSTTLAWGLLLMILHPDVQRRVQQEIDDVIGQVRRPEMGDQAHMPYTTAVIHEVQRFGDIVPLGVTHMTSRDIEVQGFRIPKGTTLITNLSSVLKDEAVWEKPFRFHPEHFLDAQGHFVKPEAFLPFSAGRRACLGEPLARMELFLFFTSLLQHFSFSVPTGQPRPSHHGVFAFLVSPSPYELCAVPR

Structure Smiles String	IC50
CC(C)(CCCCCCCCCCCCC(C)(C)C(=O)O)C(=O)O	> 100 µM
CC(C)(CCCCCCCCCCC(C)(C)CC(=O)O)CC(=O)O	> 100 µM

###

biological target: UniProtKB P11712; assay: Fluorimetric CYP inhibition assay, CYP2C9-MFC; conditions: human, % Inhibition (set 2), positive control 0.02 μM; MFC

Structure Smiles String	inhibition at 0.02 μM / %
Nc1ccc(S(=O)(=O)Nc2ccnn2-c2ccccc2)cc1	3

###

# inhibition at 0.41 μM annotations
target: CYP2C19 (Homo sapiens, UniProt P33261); test: in vitro; settings: % Inhibition (set 1)
Sequence (P33261 whole entry): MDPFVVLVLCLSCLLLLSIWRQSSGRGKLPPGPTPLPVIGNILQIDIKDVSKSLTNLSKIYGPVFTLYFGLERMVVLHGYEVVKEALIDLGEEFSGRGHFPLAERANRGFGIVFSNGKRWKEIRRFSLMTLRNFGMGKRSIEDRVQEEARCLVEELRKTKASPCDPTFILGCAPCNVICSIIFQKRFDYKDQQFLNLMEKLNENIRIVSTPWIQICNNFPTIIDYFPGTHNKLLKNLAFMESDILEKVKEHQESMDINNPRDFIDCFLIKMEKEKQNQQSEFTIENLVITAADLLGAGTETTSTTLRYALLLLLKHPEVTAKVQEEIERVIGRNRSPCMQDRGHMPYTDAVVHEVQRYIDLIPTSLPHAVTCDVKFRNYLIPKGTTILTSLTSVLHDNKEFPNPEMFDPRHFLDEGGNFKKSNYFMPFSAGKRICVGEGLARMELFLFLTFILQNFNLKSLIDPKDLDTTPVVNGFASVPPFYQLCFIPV

Structure Smiles String	Unit Label	inhibition at 0.41 μM
CC(C)(CCCCCCCCCCC(C)(C)CC(=O)O)CC(=O)O	%	5
CC(C)(CCCCCCCCCCCCC(C)(C)C(=O)O)C(=O)O	%	0

###

biological target: CYP3A4 (Homo sapiens, UniProt P08684); assay: in vitro; settings: % Inhibition (set 1)
Sequence (P08684 whole entry): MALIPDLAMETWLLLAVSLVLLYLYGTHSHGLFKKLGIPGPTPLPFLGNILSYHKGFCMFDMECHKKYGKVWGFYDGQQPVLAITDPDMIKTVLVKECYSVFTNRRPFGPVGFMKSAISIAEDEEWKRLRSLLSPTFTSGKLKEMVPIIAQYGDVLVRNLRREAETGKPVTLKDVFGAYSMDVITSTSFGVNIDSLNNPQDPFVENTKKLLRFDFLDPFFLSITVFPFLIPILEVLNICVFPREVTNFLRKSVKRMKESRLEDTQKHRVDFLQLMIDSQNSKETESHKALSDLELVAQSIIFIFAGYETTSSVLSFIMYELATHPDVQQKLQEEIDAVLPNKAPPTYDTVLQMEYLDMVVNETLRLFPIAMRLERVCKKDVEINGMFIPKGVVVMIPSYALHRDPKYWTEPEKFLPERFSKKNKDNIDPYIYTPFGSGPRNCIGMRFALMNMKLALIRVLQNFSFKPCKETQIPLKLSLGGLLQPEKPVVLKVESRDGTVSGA
Readout Name: inhibition at 0.05 μM (%)

Structure Smiles String	Recorded Measurement
CC(C)(CCCCCCCCCCC(C)(C)CC(=O)O)CC(=O)O	0
